test: chemical genetic growth profiling, strain panel (AID 1159580);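 further: tested at 20 µM; growth read once vehicle control cultures reached saturation at 30 °C; 1 = growth at the plate median or of vehicle wells; lower values mean less growth of the strain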; conditions: S. cerevisiae deletion strains, growth OD, locus YKL085W, strain MDH1, active compounds read low
About 2,000 (36%) of roughly 5,500 compounds were called active. Another 18% or so got no clear call; they are omitted. The list shows a part of the results.
Would you mind telling me the reported normalized growth of each entry?
Answers are plain numbers.

Below, 2 compounds whose answers are already recorded.
Cc1cc(O)c2c(c1O)C(=O)c1c(O)cc(C)c(O)c1C2=O: 1.01
NCCS: 1.01

Report normalized growth for each item below.
1. CCN(CC)CCNC(=O)COc1ccc(OC)cc1
2. COc1ccc2[nH]cc(CCNC(C)=O)c2c1
3. Cc1c(N(C)CS(=O)(=O)O)c(=O)n(-c2ccccc2)n1C
4. Nc1ncnc2c1ncn2[C@@H]1O[C@H](CO)[C@@H](O)[C@@H]1O
5. CCOc1nc2cccc(C(=O)OC(C)OC(=O)OC3CCCCC3)c2n1Cc1ccc(-c2ccccc2-c2nn[nH]n2)cc1 (stereo unspecified)
6. O=C1OC(=O)C2C3CCC(O3)C12 (stereo unspecified)

1. 0.981
2. 1.01
3. 0.99
4. 1
5. 0.994
6. 1.01

Report normalized growth for each item below.
1. O=C1c2ccc(O)c(O)c2C(=O)c2c(O)ccc(O)c21
2. C[C@]12CCC3C(CC[C@H]4CC(=O)CC[C@]34C)C1CCC2=O (stereo partly specified)
3. CCCCC(=O)N(Cc1ccc(-c2ccccc2-c2nn[nH]n2)cc1)[C@H](C(=O)O)C(C)C

1: 0.99; 2: 0.97; 3: 0.959

###

test: chemical genetic growth profiling, strain panel (AID 1159580);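 further: tested at 20 µM; growth read once vehicle control cultures reached saturation at 30 °C; 1 = growth at the plate median or of vehicle wells; lower values mean less growth of the strain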; details: S. cerevisiae deletion strains, growth OD, locus YMR223W, strain ubp8, active compounds read low
About 2,000 (36%) of roughly 5,500 compounds were called active. Another 18% or so got no clear call; they are omitted. The list shows a part of the results.
Threshold 1. normalized growth below it: yes. normalized growth at it or above: no.

These recorded examples may help you get a feel for the data.
CC(=O)OCC(=O)[C@@]1(O)CCC2C3CCC4=CC(=O)CC[C@]4(C)[C@@]3(F)[C@@H](O)C[C@@]21C (stereo not given in full): no
CCCC(=O)Nc1ncnc2c1ncn2C1O[C@@H]2COP(=O)(O)O[C@H]2[C@H]1OC(=O)CCC (stereo not given in full): no
COc1c2occc2cc2ccc(=O)oc12: yes
COc1cc2ccc(=O)oc2c2ccoc12: yes
Nc1ncnc2c1ncn2[C@@H]1O[C@H](CO)[C@@H](O)[C@@H]1O: no

Quick check: normalized growth of CC1=C2[C@](C)(C=CC1=O)C[C@H](O)[C@H]1[C@H](C)C(=O)O[C@]21C under 1?
no

Quick check: normalized growth of CN1Cc2c(N)cccc2C(c2ccccc2)C1 (stereo not given) under 1?
no

Quick check: normalized growth of CCCCC/C=C\C/C=C\C/C=C\C/C=C\CCCC(=O)O under 1?
yes

Quick check: normalized growth of COc1cc(O)c(C(=O)O)c(O)c1 under 1?
no

###

experiment: chemical genetic growth profiling, strain panel (AID 1159580);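 further: tested at 20 µM; growth read once vehicle control cultures reached saturation at 30 °C; 1 = growth at the plate median or of vehicle wells; lower values mean less growth of the strain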; details: S. cerevisiae deletion strains, growth OD, locus YMR307W, strain GAS1, active compounds read low
Among all 5,500 compounds or so, about 2,000 (36%) were called active. About 18% were inconclusive and are not listed. Some of the results follow.
Would you mind telling me the reported normalized growth of each entry?
Answers are plain numbers.

O=C(NC(c1ccccc1)C(N=Cc1ccccc1)c1ccccc1)c1ccccc1 (stereo not drawn): 0.999
O=C1CCC(=O)N1CNc1ccccc1OC(F)(F)F: 1.2

Report normalized growth for each item below.
1. CC(=O)OCC(=O)[C@@]1(O)CCC2C3CCC4=CC(=O)CC[C@]4(C)[C@@]3(F)[C@@H](O)C[C@@]21C (stereo partly drawn)
2. CC1(C)C[C@@H]2C(=O)CC[C@H]3O[C@]3(C)CC[C@H]21
3. CCc1cccc(C)c1NC(=O)N1CCN(C(=O)OC(C)(C)C)CC1
4. COc1ccc2c(=O)c(CC(=O)O)coc2c1
5. Nc1nc2c(nc(Br)n2C2OC3COP(=O)(O)O[C@@H]3C2O)c(=O)[nH]1 (stereo partly drawn)
6. CCOC(=O)C1=C(C)NC(C)=C(C(=O)OC)C1c1cccc([N+](=O)[O-])c1 (stereo not drawn)
7. CC(C)(O)CC[C@@H](O)[C@](C)(O)C1CC[C@@]2(O)C3=CC(=O)C4C[C@@H](O)[C@@H](O)C[C@]4(C)C3CC[C@]12C (stereo partly drawn)

1.01
1.01
1.05
1.06
0.998
0.931
1.1

Report normalized growth for each item below.
1. CCOC(=O)c1c(Nc2ccccc2)sc([N+](=O)[O-])c1N
2. O=S(=O)(O)c1cccc2cccc(Cl)c12
3. COc1ccc(-n2nc(C(F)(F)F)cc2-c2ccc(Cl)cc2)cc1
4. C[C@]12C=CC(=O)C=C1CCC1C2CC[C@]2(C)C(=O)CCC12 (stereo partly drawn)

1. 0.66
2. 0.996
3. 1.01
4. 1.16
